These data points were gathered from ChEMBL document CHEMBL3112569.

# System: MDA-MB-231
# methodDescription: Cytotoxicity against human MDA-MB-231 cells assessed as cell viability after 24 hrs by MTT assay
# Assay type: functional, cell-based
# conditionDetails: MDA-MB-231, 24 h
recordedEndpoint: IC50 (µM)
Answers are plain numbers, in µM.

Take a look at these entries with their results.
CCCCCCCCCC/C=C/C=C/[C@@H](O)[C@@H]1COC(C)(C)N1C(=O)OC(C)(C)C | 75.2
CCCCCCCCCC/C=C/C=C/C(=O)[C@H](CO)NC(=O)Cc1ccccc1 | 161
CCCCCCCCCCCCC/C=C/[C@@H](O)[C@H](CO)NC(=O)Cc1ccccc1 | 51.2

API: the following record is the query input.
I am curious: what IC50 value has been reported for CCCCCCCCCC/C=C/C=C/C(=O)[C@@H]1COC(C)(C)N1C(=O)OC(C)(C)C ?
17.2

====

# methodDescription: Cytotoxicity against human MCF-7TN-R cells assessed as cell viability after 24 to 48 hrs by MTT assay
# Type: functional, cell-based
recordedEndpoint: IC50

I am curious: what IC50 value has been reported for CCCCCCCCCCC/C=C/C=C/[C@@H](O)[C@H](CO)NC(=O)CCCCCCC ?
11.3 µM

====

# Tested on: MCF7
# methodDescription: Cytotoxicity against human MCF7 cells assessed as colony formation after 10 to 12 days by crystal violet staining assay
# Format: functional, cell-based
recordedEndpoint: IC50 (µM)
Numbers only, in µM.

Value sought for every listed compound: IC50.
1. CCCCCCCCCCCCC/C=C/[C@@H](O)[C@H](CO)NC(=O)Cc1ccccc1
2. CCCCCCCCCC/C=C/C=C/C(=O)[C@@H]1COC(C)(C)N1C(=O)OC(C)(C)C
3. CCCCCCCCCCCCCCNC(=O)[C@H](CO)NC(=O)Cc1ccccc1

[4.18, 5.07, 10.2]

Value sought for every listed compound: IC50.
1. CCCCCCCCCC/C=C/C=C/[C@@H](O)[C@@H]1COC(C)(C)N1C(=O)OC(C)(C)C
2. CCCCCCCCCC/C=C/C=C/C(=O)[C@H](CO)NC(=O)Cc1ccccc1

1. 5.69
2. 3.4
